tgt: full-length beta-Catenin (Uniprot ID P35222) (Homo sapiens (Human)) (UniProt P35222)
procedure_summary: fluorescence polarization competition; displacement of 5FAM-TCF4(10-53) from full-length beta-catenin
Starred links: 1 amine or outer side, 2 acyl side, 3 side chain; linkers in the order of their positions; H or OH if unused. Positions of bridges follow the written chain, without caps; N, C: chain ends. Non-standard residues stand in square brackets, D forms with d. Groups on a side chain read outwards from the residue. Primed or numbered codes have the meaning given here. *: point of attachment. PyrS2″ = (S)-3-amino-1-((pent-4-en-1-yloxy)carbonyl)pyrrolidine-3-carboxylic acid (stapling residue), C=CCCCOC(=O)N1CC[C@@](N[*:1])(C(=O)[*:2])C1; B5(4) = 2,2-bis(4-pentenyl)glycine = 2-amino-2-(pent-4-en-1-yl)hept-6-enoic acid (stitching residue), C=CCCCC(CCCC=C)(N[*:1])C(=O)[*:2]; B5(5) = 2,2-bis(4-pentenyl)glycine, 2-amino-2-(pent-4-en-1-yl)hept-6-enoic acid (stitching residue), C=CCCCC(CCCC=C)(N[*:1])C(=O)[*:2]; PyrS2 = (S)-3-amino-1-((pent-4-en-1-yloxy)carbonyl)pyrrolidine-3-carboxylic acid, C=CCCCOC(=O)N1CC[C@@](N[*:1])(C(=O)[*:2])C1; B5(27) = 2-amino-2-(pent-4-en-1-yl)hept-6-enoic acid (two alkene side-chain arms), C=CCCCC(CCCC=C)(N[*:1])C(=O)[*:2]; Lithocholoyl = C[C@H](CCC(=O)*)[C@H]1CC[C@H]2[C@@H]3CC[C@@H]4C[C@H](O)CC[C@]4(C)[C@H]3CC[C@]12C; MorphAsn = (S)-2-amino-4-morpholino-4-oxobutanoic acid, O=C(C[C@H](N[*:1])C(=O)[*:2])N1CCOCC1; Me3AdamantC = 3,5,7-trimethyladamantane-1-carbonyl, CC12CC3(C)CC(C)(C1)CC(C(=O)*)(C2)C3; Phe(2-Cl) = N[C@@H](Cc1ccccc1Cl)C(=O)O; Bta = N[C@@H](Cc1csc2ccccc12)C(=O)O; αAllylPro = C=CC[C@@]1(C(=O)O)CCCN1; tBuAla = CC(C)(C)C[C@H](N)C(=O)O; 3Thi = N[C@@H](Cc1ccsc1)C(=O)O; Cha = N[C@@H](CC1CCCCC1)C(=O)O; S8 = C=CCCCCCC[C@](C)(N)C(=O)O; hSer = N[C@@H](CCO)C(=O)O; Nle = CCCC[C@H](N)C(=O)O; PEG2′ = not defined here
measurement_label: pIC50
pIC50 is a log-scale quantity: -log10 of the concentration expressed in molar.

Name the reported pIC50 value associated with the binder Ac-[αAllylPro]D[tBuAla][B5(27)]DDAAFL[PyrS2][3Thi][Bta]W-NH2 (staple 1-4, 4-11) [I-1497]
7.30

Name the reported pIC50 value associated with the binder Ac-[αAllylPro]D[Nle][B5(5)]DEAAF[hSer][S8]F[Bta]Q-NH2 (staple 1-4, 4-11; also: staple isomer, earlier eluting HPLC peak) [I-1524: Ac-PL3-Asp-nLeu-B5-Asp-Glu-Ala-Ala-Phe-Hse-S8-Phe-BztA-Gln-NH2]
7.77

Name the reported pIC50 value associated with the binder Ac-[αAllylPro]DK(Me3AdamantC)[B5(4)]DDAAFL[PyrS2][3Thi][Bta]Q-NH2 (staple 1-4, 4-11) [I-1471]
7.47

Name the reported pIC50 value associated with the binder Ac-[αAllylPro]D[tBuAla][B5(5)]DEAAFL[S8][Phe(2-Cl)][Bta][dT]-NH2 (staple 1-4, 4-11) [I-1098]
7.00

Name the reported pIC50 value associated with the binder Ac-[αAllylPro]D[tBuAla][B5(4)]DEAAFT[S8][Phe(2-Cl)][Bta][dT]-NH2 (staple 1-4, 4-11; also: earlier eluting HPLC peak staple isomer composition) [I-1093]
7.37

---
Name the reported pIC50 value associated with the binder Ac-[αAllylPro]D[Cha][B5(5)]DDAAF[Cha][PyrS2″][Phe(2-Cl)][Bta]S-NH2 (staple 1-4, 4-11) [I-1113]
7.19

Name the reported pIC50 value associated with the binder Ac-[αAllylPro]DK([PEG2′-Lithocholoyl])[B5(4)]DDAAFL[PyrS2][3Thi][Bta]Q-NH2 (staple 1-4, 4-11) [I-1470]
7.24

Name the reported pIC50 value associated with the binder Ac-[αAllylPro]D[tBuAla][B5(27)]DDA[MorphAsn]FL[PyrS2][3Thi][Bta]Q-NH2 (staple 1-4, 4-11) [I-1507: Ac-PL3-Asp-Npg-B5-Asp-Asp-Ala-MorphAsn-Phe-Leu-PyrS2-3Thi-BztA-Gln-NH2]
7.52
